In this section, each of the binders is paired with its reported Affinity ELISA CPE mutant ratio (1:3, pH 6.0/7.4).
# system_tested: Axl (UniProt P30530)
# Sequence (P30530 26-451 limits assumed): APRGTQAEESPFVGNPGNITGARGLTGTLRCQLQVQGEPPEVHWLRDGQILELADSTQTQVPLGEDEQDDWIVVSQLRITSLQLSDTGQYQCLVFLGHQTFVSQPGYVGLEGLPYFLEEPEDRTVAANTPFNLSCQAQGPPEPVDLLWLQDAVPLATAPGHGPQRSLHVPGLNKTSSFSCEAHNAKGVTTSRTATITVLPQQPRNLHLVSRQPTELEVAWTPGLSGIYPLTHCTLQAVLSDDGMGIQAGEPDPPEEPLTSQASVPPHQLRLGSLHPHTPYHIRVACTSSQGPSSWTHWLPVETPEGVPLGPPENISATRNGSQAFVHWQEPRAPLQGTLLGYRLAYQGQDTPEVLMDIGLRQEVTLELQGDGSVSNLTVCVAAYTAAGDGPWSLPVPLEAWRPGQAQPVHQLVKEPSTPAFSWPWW
# assay_procedure: ELISA, 1:3 dilution
measured_property: Affinity ELISA CPE mutant ratio (1:3, pH 6.0/7.4)

* HC-E102D (antibody, V domains shown) VH: EVQLVQSGAEVKKPGATVKISCKVSGYSFTGHTMNWIRQPPGKGLEWIGLIKPSNGGTSYNQKFKGRVTISADKSISTAYLQWSSLKASDTAMYYCAHGHYDSYFAMDYWGQGTLVTVSS VL: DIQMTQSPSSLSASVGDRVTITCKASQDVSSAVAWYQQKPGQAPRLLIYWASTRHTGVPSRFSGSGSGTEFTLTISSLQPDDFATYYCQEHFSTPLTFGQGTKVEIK | 2.67
* HC-N035I (antibody, V domains shown) VH: EVQLVQSGAEVKKPGATVKISCKVSGYSFTGHTMIWIRQPPGKGLEWIGLIKPSNGGTSYNQKFKGRVTISADKSISTAYLQWSSLKASDTAMYYCAHGHYESYFAMDYWGQGTLVTVSS VL: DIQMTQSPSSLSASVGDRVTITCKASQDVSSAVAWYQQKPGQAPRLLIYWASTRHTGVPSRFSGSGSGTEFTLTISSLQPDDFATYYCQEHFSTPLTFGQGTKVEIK | 2.81
* HC-W110D (antibody, V domains shown) VH: EVQLVQSGAEVKKPGATVKISCKVSGYSFTGHTMNWIRQPPGKGLEWIGLIKPSNGGTSYNQKFKGRVTISADKSISTAYLQWSSLKASDTAMYYCAHGHYESYFAMDYDGQGTLVTVSS VL: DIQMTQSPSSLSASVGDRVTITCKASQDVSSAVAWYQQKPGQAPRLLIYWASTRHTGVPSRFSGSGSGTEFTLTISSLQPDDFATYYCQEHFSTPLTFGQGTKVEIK | 3.72

Data provenance: patent US20250276075A1
